Recorded values, source paper PMC2952445.

Target: UniProtKB P42866
Sequence (P42866 whole entry): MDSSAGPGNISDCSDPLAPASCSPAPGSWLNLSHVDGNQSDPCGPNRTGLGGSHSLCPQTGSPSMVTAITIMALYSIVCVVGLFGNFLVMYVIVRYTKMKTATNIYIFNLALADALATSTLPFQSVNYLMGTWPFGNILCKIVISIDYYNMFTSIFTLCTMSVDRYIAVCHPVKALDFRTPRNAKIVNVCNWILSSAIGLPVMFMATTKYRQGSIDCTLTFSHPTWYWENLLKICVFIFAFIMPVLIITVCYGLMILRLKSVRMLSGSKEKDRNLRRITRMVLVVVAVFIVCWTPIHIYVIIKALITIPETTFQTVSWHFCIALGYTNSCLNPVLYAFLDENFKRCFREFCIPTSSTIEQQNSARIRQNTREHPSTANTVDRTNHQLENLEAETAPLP
pIC50: −log10 of the molar value.
recorded-endpoint: pIC50

# compound, result-number
data = [
    ("CCC(=O)C(CC(C)N(C)C)(c1ccccc1)c1ccccc1 (stereo not shown)", 7.93),
]
